biological target: T1, human plasma kallikrein (human, UniProt P03952 20-390; P03952 391-638); assay: ELISA, biotinylated pKal signal over streptavidin background
T1 construct: two disulfide-linked chains; NP_000883.2; also called pKal; hpKal
T1 sequence (P03952 20-390 limits assumed, chain 1 of 2): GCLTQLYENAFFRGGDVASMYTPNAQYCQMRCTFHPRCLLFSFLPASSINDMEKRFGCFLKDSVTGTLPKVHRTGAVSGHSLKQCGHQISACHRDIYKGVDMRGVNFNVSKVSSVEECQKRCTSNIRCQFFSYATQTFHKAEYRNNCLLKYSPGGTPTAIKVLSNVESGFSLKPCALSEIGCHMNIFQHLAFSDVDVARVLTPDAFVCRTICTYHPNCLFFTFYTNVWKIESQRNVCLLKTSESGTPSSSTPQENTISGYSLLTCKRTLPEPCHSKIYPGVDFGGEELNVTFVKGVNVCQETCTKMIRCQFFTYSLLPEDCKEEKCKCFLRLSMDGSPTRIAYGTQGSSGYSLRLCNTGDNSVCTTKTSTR
T1 sequence (P03952 391-638 limits assumed, chain 2 of 2): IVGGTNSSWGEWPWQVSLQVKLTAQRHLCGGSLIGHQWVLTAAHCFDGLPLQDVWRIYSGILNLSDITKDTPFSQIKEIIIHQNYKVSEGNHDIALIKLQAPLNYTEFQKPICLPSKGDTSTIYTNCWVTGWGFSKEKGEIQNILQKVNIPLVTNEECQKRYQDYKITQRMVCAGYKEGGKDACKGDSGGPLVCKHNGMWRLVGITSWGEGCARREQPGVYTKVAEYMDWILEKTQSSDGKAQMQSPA
ASSAY_METRIC: ELISA (T/B)

M9-C08 (Fab, V domains shown) VH: EVQLLESGGGLVQPGGSLRLSCAASGFTFSHYGMVWVRQAPGKGLEWVSYIVPSGGLTYYADSVKGRFTISRDNSKNTLYLQMNSLRAEDTAVYYCARVDYTGDGLGYWGQGTLVTVSS VL: DIQMTQSPSSLSASVGDRVTITCRASQSISIYVNWYQQKPGKAPNLLIFAASSLQRGVPSRFSGSGSGADFTLTISSLQPEDFATYYCQQSFSTPLTFGGGTKVEIK: 10.9

Which ELISA (T/B) value belongs to M12-B04 (Fab, V domains shown) VH: EVQLLESGGGLVQPGGSLRLSCAASGFTFSLYSMYWVRQAPGKGLEWVSRIRPSGGGTVYADSVKGRFTISRDNSKNTLYLQMNSLRAEDTAVYYCARDPLYSSGDVWGQGTTVTVSS VL: DIQMTQSPSSLSASVGDRVTITCRASQGIRNDLGWYQHKPGKAPKLLIYAASILQSGVPSRFSGTASGTDFTLTISSLQPEDFATYFCLQDYEYPLTFGGGTKLDIK ?
18

And the next one, M11-E05 (Fab, V domains shown) VH: EVQLLESGGGLVQPGGSLRLSCAASGFTFSWYTMGWVRQAPGKGLEWVSWIYFGGLTTYADSVKGRFTISRDNSKNTLYLQMNSLRAEDTAVYYCARLGGPLDAFDIWGQGTMVTVSS VL: DIQMTQSPSSLSASVGDTVTITCRTSQTINNYLNWYQQRPGEAPKVLIYATHTLESGVPSRFSGSGSGTDFTLTIGSLQPEDFATYYCQQSFAFPYTFGQGTKVEIT ?
41.4

And the next one, M10-F09 (Fab, V domains shown) VH: EVQLLESGGGLVQPGGSLRLSCAASGFTFSNYDMMWVRQAPGKGLEWVSYISPSGGFTRYADSVKGRFTISRDNSKNTLYLQMNSLRAEDTATYYCAKDIYYYNWGPSHYFDSWGQGTLVTVSS VL: DIQMTQSPSSLSASVGDRVTITCRASQTIDDDLIWYQQKPGRAPKLLIYAASSLQSGVPSRFSGSGSGTDFTLTITSLQPEDFATYYCQQSYNIPRTFGQGTKLESK ?
4.8
